These data points were gathered from patent US20080119515A1.

Tested system: UniProt P43403
Sequence (P43403 1-619): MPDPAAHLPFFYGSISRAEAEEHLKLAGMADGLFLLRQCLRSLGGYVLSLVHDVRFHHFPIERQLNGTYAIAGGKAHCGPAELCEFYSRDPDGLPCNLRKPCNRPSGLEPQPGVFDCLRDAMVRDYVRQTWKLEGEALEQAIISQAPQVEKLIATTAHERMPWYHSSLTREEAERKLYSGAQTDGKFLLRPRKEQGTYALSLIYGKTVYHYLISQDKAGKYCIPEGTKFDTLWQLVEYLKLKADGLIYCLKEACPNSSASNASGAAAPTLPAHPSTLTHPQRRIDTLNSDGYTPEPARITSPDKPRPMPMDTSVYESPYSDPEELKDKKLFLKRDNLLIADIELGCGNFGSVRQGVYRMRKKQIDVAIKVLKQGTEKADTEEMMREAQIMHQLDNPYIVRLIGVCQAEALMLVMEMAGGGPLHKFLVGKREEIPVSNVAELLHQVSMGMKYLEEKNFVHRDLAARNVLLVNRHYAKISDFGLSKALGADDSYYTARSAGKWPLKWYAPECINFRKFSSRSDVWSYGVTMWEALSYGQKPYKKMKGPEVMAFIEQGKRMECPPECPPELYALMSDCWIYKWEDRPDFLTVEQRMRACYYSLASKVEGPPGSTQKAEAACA
Test: DELFIA assay (ZAP-70 kinase, phosphorylation of biotinylated poly(glu,tyr))
Type: biochemical
Experimental setup: ZAP-70 DELFIA, class symbols; read-out: Activity (IC50 in vitro)
Property measured: IC50

Consider the molecule N#Cc1ccc(-c2ccc3nc(NCc4ccc(Cl)cc4Cl)cc(C(=O)N4CCC[C@H]4CN4CCCC4)c3c2)cc1 . State its measured IC50.
> 10 µM

Answer with the recorded IC50 for the molecule listed here: O=C(c1cc(Cc2ccc(Cl)cc2)nc2ccc(-c3ccc4c(c3)OCO4)cc12)N1CCC[C@H]1CN1CCCC1
< 1 µM

Supply recorded IC50 for O=C(c1cc(NCCc2ccc(Cl)cc2Cl)nc2ccc(-c3ccc4c(c3)OCO4)cc12)N1CCC[C@H]1CN1CCCC1 here.
< 1 µM

New cases:
Identify IC50 associated with the molecule N=C(NC1CCCC1)[C@@H]1CCCN1C(=O)c1cc(NCc2ccc(C(F)(F)F)cc2)nc2ccc(-c3ccc4c(c3)OCO4)cc12
> 10 µM

Tell us which IC50 value is on record for O=C(c1cc(C#Cc2cccc(C(F)(F)F)c2)nc2ccc(-c3ccc4c(c3)OCO4)cc12)N1CCC[C@H]1CN1CCCC1
< 1 µM

Identify measured IC50 corresponding to Cc1ccc(CCc2cc(C(=O)N3CCC[C@H]3CN3CCCC3)c3cc(-c4ccc5c(c4)OCO5)ccc3n2)cc1
< 1 µM

====

Recorded IC50 values for a group of compounds are listed next.
Tested system: ZAP-70 (Homo sapiens)
Sequence (P43403 1-619): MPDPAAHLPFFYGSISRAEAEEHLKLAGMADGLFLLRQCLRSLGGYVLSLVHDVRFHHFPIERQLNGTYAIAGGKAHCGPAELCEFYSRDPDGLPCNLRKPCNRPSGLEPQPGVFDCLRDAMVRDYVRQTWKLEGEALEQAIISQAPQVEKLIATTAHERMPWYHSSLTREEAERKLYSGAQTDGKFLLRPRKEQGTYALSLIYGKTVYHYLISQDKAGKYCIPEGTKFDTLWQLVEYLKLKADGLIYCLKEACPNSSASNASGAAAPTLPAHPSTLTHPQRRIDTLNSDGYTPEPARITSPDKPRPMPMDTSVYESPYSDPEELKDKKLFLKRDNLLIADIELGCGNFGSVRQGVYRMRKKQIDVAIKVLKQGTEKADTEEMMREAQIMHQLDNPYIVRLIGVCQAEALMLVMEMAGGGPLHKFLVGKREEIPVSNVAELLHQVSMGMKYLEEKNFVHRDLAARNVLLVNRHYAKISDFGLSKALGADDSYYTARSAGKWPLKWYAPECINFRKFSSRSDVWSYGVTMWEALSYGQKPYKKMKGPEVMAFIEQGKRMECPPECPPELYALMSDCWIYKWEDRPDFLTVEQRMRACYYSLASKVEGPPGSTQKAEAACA
Test: DELFIA assay (ZAP-70 kinase, phosphorylation of biotinylated poly(glu,tyr))
Assay type: biochemical
Experimental setup: ZAP-70 DELFIA, class symbols; read-out: Activity (IC50 in vitro)

The following compounds have reported results that may help.
Query IC50 for N#Cc1ccc(-c2ccc3nc(NCc4cccc(Cl)c4F)cc(C(=O)N4CCC[C@H]4CN4CCCC4)c3c2)cc1
> 10 µM

Return reported IC50. Input compound: N#Cc1ccc(-c2ccc3nc(NC(CO)Cc4ccccc4)cc(C(=O)N4CCC[C@H]4CN4CCCC4)c3c2)cc1 (stereo partly drawn)
< 1 µM

Respond only with IC50 recorded for O=C(c1cc(/C=C/c2ccccc2)nc2ccc(-c3ccc4c(c3)OCO4)cc12)N1CCC[C@H]1CN1CCCC1
1 to 10 µM

In one line, give reported IC50 of the entry O=C(c1cc(OCc2ccc(C(F)(F)F)cc2)nc2ccc(-c3ccc4c(c3)OCO4)cc12)N1CCC[C@H]1CN1CCCC1 .
< 1 µM

Further cases:
Supply reported IC50 belonging to this compound: N#Cc1ccc(-c2ccc3nc(N4CCCC4c4ccc(Cl)cc4)cc(C(=O)N4CCC[C@H]4CN4CCCC4)c3c2)cc1 (stereo partly drawn)
> 10 µM

Could you please provide reported IC50 for O=C(c1cc(NCCc2ccccc2)nc2ccc(-c3ccc4c(c3)OCO4)cc12)N1CCC[C@H]1CN1CCCC1 ? Thanks!
< 1 µM

====

IC50 by entry:
Tested system: UniProt:P43403
Test: DELFIA assay (ZAP-70 kinase, phosphorylation of biotinylated poly(glu,tyr))
Format: biochemical
Experimental setup: ZAP-70 DELFIA, class symbols; read-out: Activity (IC50 in vitro)

Some solved cases for reference:
Return reported IC50. Input molecule: O=C(c1cc(N[C@H]2CCc3ccccc32)nc2ccc(-c3ccc4c(c3)OCO4)cc12)N1CCC[C@H]1CN1CCCC1
< 1 µM

Given C[C@@H](Nc1cc(C(=O)N2CCC[C@H]2CN2CCCC2)c2cc(-c3ccc(C#N)cc3)ccc2n1)c1ccccc1 , respond with its IC50.
> 10 µM

Look up and report measured IC50 for this entry: O=C(c1cc(NCc2ccc(C(F)(F)F)cc2)nc2ccc(-c3cccc(OC(F)(F)F)c3)cc12)N1CCC[C@H]1CN1CCCC1
< 1 µM

Please list IC50 recorded for the molecule N#Cc1ccc(-c2ccc3nc(NCc4ccccc4Br)cc(C(=O)N4CCC[C@H]4CN4CCCC4)c3c2)cc1
> 10 µM

Given O=C(c1cc(NCc2ccc(C(F)(F)F)cc2)nc2ccc(-c3ncccn3)cc12)N1CCC[C@H]1CN1CCCC1 , respond with its IC50.
> 10 µM

More entries:
Write down IC50 measured for item O=C(c1cc(NC2CC2)nc2ccc(-c3ccc4c(c3)OCO4)cc12)N1CCC[C@H]1CN1CCCC1
1 to 10 µM

Let me know recorded IC50 for N#Cc1cncc(-c2ccc3nc(NCc4ccc(C(F)(F)F)cc4)cc(C(=O)N4CCC[C@H]4CN4CCCC4)c3c2)c1 , thanks.
> 10 µM

====

Tested system: ZAP-70 (Homo sapiens)
Test: DELFIA assay (ZAP-70 kinase, phosphorylation of biotinylated poly(glu,tyr))
Type: biochemical
Experimental setup: ZAP-70 DELFIA, class symbols; read-out: Activity (IC50 in vitro)
pIC50: −log10 of the molar value.
Property measured: pIC50

Give the value of pIC50 reported for the following: O=C(c1cc(CCc2ccccc2)nc(CCc2ccccc2)c1)N1CCC[C@H]1CN1CCCC1
< 5.00

Supply pIC50 value. Item: Cn1ccnc1-c1ccc2nc(NCc3ccc(C(F)(F)F)cc3)cc(C(=O)N3CCC[C@H]3CN3CCCC3)c2c1
< 5.00

# return recorded pIC50 for input C[C@H]1CCN(C(=O)c2cc(NCc3ccc(C(F)(F)F)cc3)nc3ccc(-c4ccc5c(c4)OCO5)cc23)[C@@H]1CN1CCCC1
5.00 to 6.00

Let me know recorded pIC50 for O=C(c1cc(Cc2ccc(N3CCC4(CC3)CNC4)cc2)nc2ccc(-c3ccc4c(c3)OCO4)cc12)N1CCCC1CN1CCCC1 (stereo not drawn) , thanks.
> 6.00

Tell me pIC50 reported for O=C(c1cc(NCc2ccc(C(F)(F)F)cc2)nc2ccc(/C=C/c3ccccc3)cc12)N1CCC[C@H]1CN1CCCC1
5.00 to 6.00

Annotate the compound O=C(c1cc(Cc2ccc(N3CCN(c4ccncc4)CC3)cc2)nc2ccc(-c3ccc4c(c3)OCO4)cc12)N1CCCC1CN1CCCC1 (stereo not drawn) with its measured pIC50.
> 6.00

Next:
Dear colleague, please send me the reported pIC50 for Nc1cc(-c2ccc3c(c2)OCO3)cc2c(C(=O)N3CCC[C@H]3CN3CCCC3)cc(CCc3ccc(C(F)(F)F)cc3)nc12 when you can.
> 6.00

Report pIC50 for O=C(c1cc(CCCc2ccc(Cl)cc2)nc2ccc(-c3ccc4c(c3)OCO4)cc12)N1CCC[C@H]1CN1CCCC1
> 6.00

In one line, give reported pIC50 of the entry N#C[C@@H]1CCCN1C(=O)c1cc(NCc2ccc(C(F)(F)F)cc2)nc2ccc(-c3ccc4c(c3)OCO4)cc12 .
< 5.00

Identify pIC50 associated with the compound N#Cc1ccc(-c2ccc3nc(N4CCC[C@@H]4c4ccccc4Cl)cc(C(=O)N4CCC[C@H]4CN4CCCC4)c3c2)cc1
< 5.00

Look up and report measured pIC50 for this entry: O=C(c1cc(NCc2ccccc2)nc2ccc(-c3ccc4c(c3)OCO4)cc12)N1CCC[C@H]1CNCc1ccccc1
< 5.00

Find the measured pIC50 of O=C(c1cc(Cc2ccc(Cl)cc2Cl)nc2ccc(-c3ccc4c(c3)OCO4)cc12)N1CCC[C@H]1CN1CCCC1 and report it.
> 6.00

Give me measured pIC50, please, for this compound: O=C(c1cc(NCc2ccc(Cl)cc2)nc2ccc(-c3ccc4c(c3)OCO4)cc12)N1CCCC[C@H]1CN1CCCC1
5.00 to 6.00

Quick one: give measured pIC50 for CNC[C@@H]1CCCN1C(=O)c1cc(NCc2ccc(C(F)(F)F)cc2)nc2ccc(-c3ccc4c(c3)OCO4)cc12
5.00 to 6.00

Return pIC50 for the following compound: COCCN1CCN(c2cc(C(=O)N3CCC[C@H]3CN3CCCC3)c3cc(-c4ccc5c(c4)OCO5)ccc3n2)CC1
5.00 to 6.00
